System: TSSK1B
measurementParameters: concentration: 1 μM, replicates: in singlicate; n = 1;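 also: KINOMEscan kinase panel screen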
testReadout: %Inh (%)
Give bare numbers, in %.

// each listed compound needs a value for %Inh
1. COc1ccc(CNC(=O)NC2CCN(c3ccnc(Nc4ccc(F)cc4)n3)C2)cc1 (stereo not shown) [GSK1379706]
2. COc1cc2nccc(Nc3cccc(Oc4ccccc4)c3)c2cc1OC.Cl [GW284543]

a:
1. 0
2. 11

Look up %Inh for the entries below, preserving their order.
1. COC(=O)c1c(-c2ccccc2)c2cc(Br)ccc2c(=O)n1Cc1ccc(S(C)(=O)=O)cc1
2. O=C(Nc1n[nH]c2cc(-c3ccccc3F)ccc12)C1CC1 [SB-733371]

a:
1: 0; 2: 0

Items follow; give %Inh for each.
1. CN1C(=O)C(Nc2ccccc2)=C(c2ccccc2)C1=O [SB-300079]
2. Cc1c(Cn2c(C)nn3c(=O)cc(N4CCO[C@H](C)C4)nc23)cccc1C(F)(F)F [GSK2373690]
3. COc1cc2ncn(-c3cc(OCc4ccc(S(C)(=O)=O)cc4)c(C(N)=O)s3)c2cc1OC [GW869979]
4. Cc1ccc(Oc2ccc(Nc3ncnc4cc[nH]c34)cc2C)cn1

a:
1: 0; 2: 0; 3: 0; 4: 5

* * *

Kindly supply the reported %Inh values for the records listed here.
System: HCK
measurementParameters: concentration: 1 μM, replicates: in singlicate; n = 1
Numbers only, in %.

The following molecules have reported results that may help.
Cc1c(Cn2c(C)nn3c(=O)cc(N4CCO[C@H](C)C4)nc23)cccc1C(F)(F)F [GSK2373690] | 0
Cl.c1ccc(Cn2cnc3cc(Nc4ncnc5ccccc45)ccc32)cc1 [GW272142] | 0
COC(=O)c1c(-c2ccccc2)c2cc(C)ccc2c(=O)n1Cc1ccccc1 | 0
CCC(=O)c1c(-c2ccccc2)c2cc(Cl)ccc2c(=O)n1Cc1cc(S(C)(=O)=O)n(CC(N)=O)n1 | 24
CN1C(=O)C(Nc2ccccc2)=C(c2ccccc2)C1=O [SB-300079] | 13

Report %Inh for each item below.
1. Cn1c(=O)c(F)c(Nc2ccc(I)cc2F)c2c(=O)n(OC[C@H](O)CO)cnc21
2. Cc1nnc(-c2ccc3ncn(-c4ccc(S(C)=O)cc4)c3c2)o1 (stereo not drawn)
3. O=C(Nc1ccc2c(c1)OCO2)NC1CCN(c2ccnc(NCc3ccc(F)cc3)n2)CC1 [GSK1379859]

a:
1: 10; 2: 13; 3: 0

q: Which measured %Inh value corresponds to COc1ccc(CNC(=O)NC2CCN(c3ccnc(Nc4ccc(F)cc4)n3)C2)cc1 (stereo not drawn) [GSK1379706] ?
a: 0

* * *

Test system: PLK4
measurementParameters: concentration: 1 μM, replicates: in singlicate; n = 1
Assign %Inh to each entry below.
Numbers only, in %.

Please review the entries below; each comes with its answer.
COc1cc(Nc2ccnc3ccc(C(F)(F)F)cc23)cc(OC)c1OC [GW577382] | 50
Cc1nn2c(=O)cc(N3CCOCC3)nc2n1Cc1cccc(Cl)c1Cl [GSK2342769] | 0
O=C(NCc1cccs1)c1cc(C(=O)c2c(Cl)cccc2Cl)c[nH]1 [GW823670] | 0
CCC(=O)c1c(-c2ccccc2)c2cc(Cl)ccc2c(=O)n1Cc1ccc(C(=O)O)cc1 | 0
CCCNC(=O)Nc1ccc(Oc2ncnc3ccn(C)c23)cc1 | 18
Nc1nccc2scc(-c3ccc4c(c3)CCN4C(=O)Cc3ccccc3)c12 [GSK2576924] | 6
Cc1nnc(-c2ccc3ncn(-c4ccc(S(C)=O)cc4)c3c2)o1 (stereo not drawn) | 14
COc1cccc(C2=C(N(C)c3ccccc3)C(=O)NC2=O)c1 [SB-334865] | 17

Field: next molecule
q: Recorded %Inh for Nc1nc(-c2ccccc2F)c(-c2ccnc3ccccc23)s1 [GW560459] with PLK4, please?
a: 0

* * *

System: OSR1
Construct: gene OXSR1
measurementParameters: concentration: 1 μM, replicates: in singlicate; n = 1
testReadout: %Inh (%)
One number for each entry, in %.

Cc1cccc(-c2cc(-c3c[nH]nc3-c3ccccn3)ccn2)c1 | 0
Cc1c(Cn2c(C)nn3c(=O)cc(N4CCO[C@H](C)C4)nc23)cccc1C(F)(F)F | 22
Cc1cc(Nc2nc(-c3cccc(C)n3)nc3ccccc23)ccn1 | 0
CN(C)c1cc(-c2ccc3c(N)n[nH]c3c2)nc(N)n1 | 0

q: Requested read-out: %Inh. Entry: COc1cc(Nc2nccc(N3CCC(NC(=O)C(C)c4ccc(Cl)cc4)C3)n2)cc(OC)c1OC (centres unmarked)
a: 0

* * *

System: WNK2
measurementParameters: concentration: 1 μM, replicates: in singlicate; n = 1
Please use met whenever %Inh is not below 10%, and not met whenever it is.

Consider the following illustrative entries.
CCCNC(=O)Nc1ccc(Oc2ncnc3ccn(C)c23)cc1 | not met
Cc1cccc(-c2cc(-c3c[nH]nc3-c3ccccn3)ccn2)c1 | met
COc1cccc(C2=C(Nc3cccc(C(=O)O)c3)C(=O)NC2=O)c1 | met
COc1cc(Nc2ccnc3ccc(C(F)(F)F)cc23)cc(OC)c1OC | met

Consider the additional compound presented here.
q: # check: %Inh of COc1cc2ncn(-c3cc(OCCCc4ccccc4)c(C(N)=O)s3)c2cc1OC is greater than or equal to 10%
a: not met

* * *

System: DRAK2
Construct: gene STK17B
measurementParameters: concentration: 1 μM, replicates: in singlicate; n = 1
Give measured %Inh for each item. Keep answers brief.
One number for each entry, in %.

Need %Inh for each of these molecules.
1. Nc1nccc2scc(-c3ccc4c(c3)CCN4C(=O)Cc3ccccc3)c12 [GSK2576924]
2. COc1cc2ncn(-c3cc(OCCCc4ccccc4)c(C(N)=O)s3)c2cc1OC [GSK205189]
3. Cc1nc(N(C)[C@H]2CN(C(=O)CC#N)CC[C@H]2C)c2cc[nH]c2n1
4. Nc1ncnc2c1ncn2-c1cccc2ccccc12 [SKF-97184]

a:
[0, 0, 0, 0]

* * *

Tested on: KIT
measurementParameters: concentration: 1 μM, replicates: in singlicate; n = 1
testReadout: %Inh (%)
Give bare numbers, in %.

Check out these entries, answers already filled in.
COc1cc(OC)cc(-c2cc3cnc(N)nc3nc2NC(=O)NC(C)(C)C)c1 | 0
COc1ccc(-c2cc3c(C)nc(N)nc3n([C@H]3CC[C@H](O)CC3)c2=O)cn1 | 0
COc1cc(Nc2ccnc3ccc(C(F)(F)F)cc23)cc(OC)c1OC | 19
COc1ccc(-n2cnc3c(N)ncnc32)cc1 | 94.2

Attention now shifts to the item below.
q: API: value(readout= %Inh, system= KIT, query= COc1cc2ncn(-c3cc(OCCCc4ccccc4)c(C(N)=O)s3)c2cc1OC )
a: 13

* * *

Test system: PRKCD
measurementParameters: concentration: 1 μM, replicates: in singlicate; n = 1
For each of the compounds below, state its %Inh.
Give bare numbers, in %.

Look over these answered cases.
CCC(=O)c1c(-c2ccccc2)c2cc(Cl)ccc2c(=O)n1Cc1cc(S(C)(=O)=O)n(CCC(C)(C)O)n1 | 0
O=c1cc(N2CCOCC2)nc2n(Cc3ccc(F)c(Cl)c3)ccn12 | 0
Cc1ccc(Oc2ccc(Nc3ncnc4cc[nH]c34)cc2C)cn1 | 5
CCc1nc(-c2cccc(C)c2)c(-c2ccncc2)s1 | 0

Please look at the items below and tell me %Inh for each one, in order.
1. Nc1nc(-c2ccccc2F)c(-c2ccnc3ccccc23)s1
2. CCCC(=O)Nc1n[nH]c2ncc(-c3cccc4ccccc34)cc12

a:
[0, 0]

Below are 5 compounds. Give each one its %Inh.
1. Cc1cccc(-c2nc(Nc3ccc4c(cnn4C)c3)c3ccccc3n2)n1
2. CCc1ccc(-c2ccc3c(c2)-c2nn(C)cc2S(=O)(=O)N3C)cc1
3. CCC(=O)c1c(-c2ccccc2)c2cc(Cl)ccc2c(=O)n1Cc1ccc(C(=O)O)cc1
4. O=C1NC(=O)C(c2ccccc2)=C1Nc1cccc(O)c1
5. CCC(=O)c1c(-c2ccccc2)c2cc(Cl)ccc2c(=O)n1Cc1cc(S(C)(=O)=O)n(CC(N)=O)n1

a:
[5, 14, 0, 5, 6]

* * *

Tested on: CSNK2A1
measurementParameters: concentration: 1 μM, replicates: in singlicate; n = 1
Give measured %Inh for each item. Keep answers brief.
Give bare numbers, in %.

Completed entries (count: 3):
CCC(=O)c1c(-c2ccccc2)c2cc(Cl)ccc2c(=O)n1Cc1cc(S(C)(=O)=O)n(CCC(C)(C)O)n1 | 17
OCCCNc1nccc(-c2c(-c3cccc(C(F)(F)F)c3)nn3cc(C(F)(F)F)ccc23)n1 | 0
COc1ccc(-c2coc3ccc(-c4nnc(SCc5cccc(C#N)c5)o4)cc23)cc1 | 3

Count: 3. Required value per item: %Inh.
1. COc1cc(Nc2nccc(N3CCC(NC(=O)C(C)c4ccc(Cl)cc4)C3)n2)cc(OC)c1OC (centres unmarked)
2. O=C(NCc1cccs1)c1cc(C(=O)c2c(Cl)cccc2Cl)c[nH]1
3. COc1ccc(CNC(=O)NC2CCN(c3ccnc(Nc4ccc(F)cc4)n3)C2)cc1 (centres unmarked)

a:
1. 1
2. 0
3. 4

Need %Inh for each of these compounds.
1. Nc1n[nH]c2nnc(-c3ccccc3)c(-c3ccccc3)c12
2. O=C(Nc1n[nH]c2cc(-c3ccccc3F)ccc12)C1CC1

a:
1: 11; 2: 3
